Test system: NCI-H841 complex tumor spheroid viability
Assay: Anticancer human tumor NCI-H841 cell line growth inhibition;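 further: spheroids exposed to compounds for 7 days before readout; 100% = DMSO vehicle control wells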
Conditions: second compound 0.0949 µM; first compound 0.1 µM; hits give low values
Measured viability, T/C of individual entries

Example cases with answers are listed next.
CC1COCCN1c1cc(-c2ccnn2C)c2ccnc(-c3ccn[nH]3)c2n1 (stereo not drawn) + CC[C@@]1(O)C(=O)OCc2c1cc1n(c2=O)Cc2cc3c(CN(C)C)c(O)ccc3nc2-1 ... 0.37%
COc1ccc([C@@H](O)c2cc(-c3ncnc4cc(N5CCOCC5)ccc34)c(F)cc2Cl)nn1 + CC[C@@]1(O)C(=O)OCc2c1cc1n(c2=O)Cc2cc3c(CN(C)C)c(O)ccc3nc2-1 ... 1.55%

For the next question, use this compound.
Request the reported viability, T/C associated with Cc1cc(C)c(CNC(=O)c2cc(-c3ccc(CN4CCOCC4)cc3)cc3c2cnn3C2CCCC2)c(=O)[nH]1 + CC[C@@]1(O)C(=O)OCc2c1cc1n(c2=O)Cc2cc3c(CN(C)C)c(O)ccc3nc2-1
1.47%

* * *

Measured viability, T/C of individual entries
System: NCI-H841 complex tumor spheroid viability
Assay: Anticancer human tumor NCI-H841 cell line growth inhibition;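 further: spheroids exposed to compounds for 7 days before readout; 100% = DMSO vehicle control wells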
Settings: second compound 3.16 µM; first compound 1 µM; hits give low values
Numeric only. Scale: %

Example cases with answers are listed next.
[2H]c1nc(C)nc([2H])c1-c1cc(NC[C@@H](C)c2cccc3c(C(=O)NC)ccnc23)ncn1 + Cn1nnc2c(C(N)=O)ncn2c1=O ... 101
Cc1cc(C)c(CNC(=O)c2cc(-c3ccc(CN4CCOCC4)cc3)cc3c2cnn3C2CCCC2)c(=O)[nH]1 + Cn1nnc2c(C(N)=O)ncn2c1=O ... 97.4
COc1ccc([C@@H](O)c2cc(-c3ncnc4cc(N5CCOCC5)ccc34)c(F)cc2Cl)nn1 + Cn1nnc2c(C(N)=O)ncn2c1=O ... 70.7
COc1cc(C)[nH]c(=O)c1CN1CCc2c(Cl)cc(C(OC)C3COC3)c(Cl)c2C1=O (stereo unspecified) + Cn1nnc2c(C(N)=O)ncn2c1=O ... 47.8

Request the reported viability, T/C associated with CC1COCCN1c1cc(-c2ccnn2C)c2ccnc(-c3ccn[nH]3)c2n1 (stereo unspecified) + Cn1nnc2c(C(N)=O)ncn2c1=O
2.34

And the next one, CC(C)n1c(=O)n(C)c2cnc3cc(F)c(-c4ccc(OCCCN5CCCCC5)nc4)cc3c21 + Cn1nnc2c(C(N)=O)ncn2c1=O ?
90.5

* * *

Test system: NCI-H841 complex tumor spheroid viability
Test: Anticancer human tumor NCI-H841 cell line growth inhibition; active means viability on the fitted dose curve at most 10% of control; inactive means the rest;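 further: spheroids exposed to compounds for 7 days before readout; 100% = DMSO vehicle control wells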
Conditions: second compound 0.0003 µM; first compound 0.1 µM
Tick one outcome: t (active), f (inactive)

Recorded results for 5 molecules are shown here.
Cc1cc(C)c(CNC(=O)c2cc(-c3ccc(CN4CCOCC4)cc3)cc3c2cnn3C2CCCC2)c(=O)[nH]1 + COc1cc2c(cc1O)CCNC21CSC2c3c(OC(C)=O)c(C)c4c(c3C(COC1=O)N1C(O)C3Cc5cc(C)c(OC)c(O)c5C(C21)N3C)OCO4 ... f
CC(C)n1c(=O)n(C)c2cnc3cc(F)c(-c4ccc(OCCCN5CCCCC5)nc4)cc3c21 + COc1cc2c(cc1O)CCNC21CSC2c3c(OC(C)=O)c(C)c4c(c3C(COC1=O)N1C(O)C3Cc5cc(C)c(OC)c(O)c5C(C21)N3C)OCO4 ... t
CC1COCCN1c1cc(-c2ccnn2C)c2ccnc(-c3ccn[nH]3)c2n1 (stereo unspecified) + COc1cc2c(cc1O)CCNC21CSC2c3c(OC(C)=O)c(C)c4c(c3C(COC1=O)N1C(O)C3Cc5cc(C)c(OC)c(O)c5C(C21)N3C)OCO4 ... t
COc1ccc([C@@H](O)c2cc(-c3ncnc4cc(N5CCOCC5)ccc34)c(F)cc2Cl)nn1 + COc1cc2c(cc1O)CCNC21CSC2c3c(OC(C)=O)c(C)c4c(c3C(COC1=O)N1C(O)C3Cc5cc(C)c(OC)c(O)c5C(C21)N3C)OCO4 ... f
COc1cc(C)[nH]c(=O)c1CN1CCc2c(Cl)cc(C(OC)C3COC3)c(Cl)c2C1=O (stereo unspecified) + COc1cc2c(cc1O)CCNC21CSC2c3c(OC(C)=O)c(C)c4c(c3C(COC1=O)N1C(O)C3Cc5cc(C)c(OC)c(O)c5C(C21)N3C)OCO4 ... f

Shift focus to the following entry.
Just curious, what result did [2H]c1nc(C)nc([2H])c1-c1cc(NC[C@@H](C)c2cccc3c(C(=O)NC)ccnc23)ncn1 + COc1cc2c(cc1O)CCNC21CSC2c3c(OC(C)=O)c(C)c4c(c3C(COC1=O)N1C(O)C3Cc5cc(C)c(OC)c(O)c5C(C21)N3C)OCO4 get here?
f
